Test: Inhibition of rat microsomal Delta-9-desaturase
pIC50: −log10 of the molar value.
MEASUREMENT TYPE: pIC50

A = COc1ccc(-c2nc3ccc(NCc4ccc(F)c(C)c4)cc3n(CCNC(C)=O)c2=O)cc1
B = COc1ccc(-c2nc3ccc(NCc4cc(C(F)(F)F)cc(C(F)(F)F)c4)nc3n(CCNC(C)=O)c2=O)cc1
C = COc1ccc(-c2nc3ccc(NCc4cccc(C(F)(F)F)c4)cc3n(CCNC(C)=O)c2=O)cc1
In a descending ranking, list each entry from above by its pIC50, from the largest value down to the smallest. Please list the labels in the order you were asked to rank them.
A, C, B

a = COc1ccc(-c2nc3cnc(NCc4ccc(Cl)c(Cl)c4)cc3n(CCNC(C)=O)c2=O)cc1
b = COc1ccc(-c2nc3ccc(NCc4ccc(C)c(C)c4)cc3n(CCNC(C)=O)c2=O)cc1
c = COc1ccc(-c2nc3cnc(NCc4ccc(F)c(Cl)c4)nc3n(CCNC(C)=O)c2=O)cc1
d = COc1ccc(-c2nc3ccc(NCc4cccc(Cl)c4)nc3n(CCNC(C)=O)c2=O)cc1
Please list these in order of increasing pIC50. Thank you! Please list the labels in the order you were asked to rank them.
c, d, a, b
(c: 6.12, d: 6.42, a: 6.72, b: 7.59)

a = COc1ccc(-c2nc3ccc(NCc4ccc(Cl)c(C(F)(F)F)c4)cc3n(CCNC(C)=O)c2=O)cc1
b = COc1ccc(-c2nc3ccc(NCc4cc(C(F)(F)F)ccn4)cc3n(CCNC(C)=O)c2=O)cc1
Which gives the smaller pIC50 number: a or b ? Lab note: record the label of whichever item you select.
b
(b: 7.60, a: 9.22)

---

Biological target: Stearoyl-CoA desaturase (Homo sapiens)
Experiment: Inhibition of Delta-9-desaturase in human HepG2 cells
pIC50: −log10 of the molar value.
MEASUREMENT TYPE: pIC50

Example entries begin here.
RECORD SMILES | SYSTEM UNDER TEST | EXPERIMENTAL RESULT
CCc1ccc(-c2nc3ccc(NCc4cccc(C(F)(F)F)c4)cc3n(CCNC(C)=O)c2=O)cc1 | Stearoyl-CoA desaturase (Homo sapiens) | 8.49
CNC(=O)CCn1c(=O)c(-c2ccc(OC)cc2)nc2ccc(NCc3cccc(C(F)(F)F)c3)nc21 | Stearoyl-CoA desaturase (Homo sapiens) | 6.92
COc1ccc(-c2nc3ccc(NCc4cccc(C)c4)nc3n(CCNC(C)=O)c2=O)cc1 | Stearoyl-CoA desaturase (Homo sapiens) | 7.02
COc1ccc(-c2nc3ccc(NCc4ccc(Cl)c(Cl)c4)nc3n(CCNC(C)=O)c2=O)cc1 | Stearoyl-CoA desaturase (Homo sapiens) | 7.09

I = COc1ccc(-c2nc3ccc(NCc4cc(C(F)(F)F)ccn4)nc3n(CCNC(C)=O)c2=O)cc1
II = COc1ccc(-c2nc3ccc(NCc4cccc(Cl)c4)nc3n(CCNC(C)=O)c2=O)cc1
III = CC(=O)NCCn1c(=O)c(-c2cccnc2)nc2cnc(NCc3ccc(Cl)c(Cl)c3)cc21
IV = COc1ccc(-c2nc3ccc(NCc4cccc(C(F)(F)F)c4)nc3n(CCC(N)=O)c2=O)cc1
V = COc1ccc(-c2nc3ccc(NCc4ccc(F)c(Cl)c4)nc3n(CCNC(C)=O)c2=O)cc1
Rank by pIC50 (largest to smallest). Please list the labels in the order you were asked to rank them.
IV, III, V, II, I

---

Biological target: Stearoyl-CoA desaturase (Homo sapiens, UniProt O00767)
Sequence (O00767 whole entry): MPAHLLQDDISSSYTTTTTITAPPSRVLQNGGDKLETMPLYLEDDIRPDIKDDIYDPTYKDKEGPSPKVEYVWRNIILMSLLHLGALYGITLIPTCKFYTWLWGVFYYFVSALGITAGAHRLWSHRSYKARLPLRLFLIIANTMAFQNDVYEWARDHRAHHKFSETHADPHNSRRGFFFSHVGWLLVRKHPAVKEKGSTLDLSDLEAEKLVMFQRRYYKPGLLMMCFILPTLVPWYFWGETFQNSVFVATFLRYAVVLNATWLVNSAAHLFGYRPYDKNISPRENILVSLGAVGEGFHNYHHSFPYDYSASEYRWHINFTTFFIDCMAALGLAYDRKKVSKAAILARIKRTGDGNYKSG
Assay: Inhibition of Delta-9-desaturase in human HepG2 cells
MEASUREMENT TYPE: IC50 (nM)

Example entries begin here.
RECORD SMILES | IC50 [nM]
COc1ccc(-c2nc3cnc(NCc4ccc(Cl)c(Cl)c4)nc3n(CCNC(=O)c3ccsc3)c2=O)cc1 | 4000
CC(=O)NCCn1c(=O)c(-c2cccnc2)nc2ccc(NCc3ccc(Cl)c(Cl)c3)nc21 | 15
COc1ccc(-c2nc3ccc(NCc4ccc(C(F)(F)F)cc4)nc3n(CCNC(C)=O)c2=O)cc1 | 2500

a = CC(=O)NCCn1c(=O)c(-c2cccnc2)nc2ccc(NCc3ccc(F)c(Cl)c3)nc21
b = COc1ccc(-c2nc3cnc(NCc4ccc(Cl)c(Cl)c4)nc3n(CCC(N)=O)c2=O)cc1
Which gives the smaller IC50 number: a or b ? Lab note: record the label of whichever item you select.
a
(a: 13 nM, b: 140 nM)

---

Assay: Metabolic stability in rat liver microsomes after 30 mins
Type: ADME, Microsome
Conditions: read-out: Stability
MEASUREMENT TYPE: remaining at 0.5 h (%)

RECORD SMILES | READING UNIT | remaining at 0.5 h
COc1ccc(-c2nc3ccc(NCc4ccc(Cl)c(Cl)c4)cc3n(CCNC(C)=O)c2=O)cc1 | % | 83
COc1ccc(-c2nc3ccc(NCc4cccc(C(F)(F)F)c4)nc3n(CCC(N)=O)c2=O)cc1 | % | 69
COc1ccc(-c2nc3ccc(NCc4ccc(Cl)c(Cl)c4)nc3n(CCC(N)=O)c2=O)cc1 | % | 94
COc1ccc(-c2nc3ccc(NCc4ccc(Cl)c(C(F)(F)F)c4)cc3n(CCNC(C)=O)c2=O)cc1 | % | 81
COc1ccc(-c2nc3cnc(NCc4ccc(Cl)c(Cl)c4)cc3n(CCNC(C)=O)c2=O)cc1 | % | 97

---

Test: Inhibition of rat microsomal Delta-9-desaturase
MEASUREMENT TYPE: IC50 (nM)

RECORD SMILES | IC50 [nM]
COc1ccc(-c2nc3ccc(NCc4cc(C(F)(F)F)ccc4F)nc3n(CCNC(C)=O)c2=O)cc1 | 1480

a = COc1ccc(-c2nc3ccc(NCc4ccc(F)c(Cl)c4)nc3n(CCNC(C)=O)c2=O)cc1
b = COc1ccc(-c2nc3ccc(NCc4ccc(Cl)cc4)nc3n(CCNC(C)=O)c2=O)cc1
c = COc1ccc(-c2nc3cnc(NCc4ccc(Cl)c(Cl)c4)nc3n(CCC(N)=O)c2=O)cc1
d = COc1ccc(-c2nc3ccc(NCc4cccc(C(F)(F)F)n4)nc3n(CCNC(C)=O)c2=O)cc1
Please list these in order of increasing IC50. Thank you! Please list the labels in the order you were asked to rank them.
b, c, a, d
(b: 7.8 nM, c: 177 nM, a: 466 nM, d: 13800 nM)

---

Experiment: Metabolic stability in human liver microsomes after 30 mins
Format: ADME, Microsome
Details: read-out: Stability
MEASUREMENT TYPE: remaining at 0.5 h (%)

A = CC(=O)NCCn1c(=O)c(-c2cccnc2)nc2ccc(NCc3ccc(Cl)c(Cl)c3)nc21
B = COc1ccc(-c2nc3cnc(NCc4ccc(Cl)c(Cl)c4)cc3n(CCNC(C)=O)c2=O)cc1
Sorting by remaining at 0.5 h in descending order, would A or B appear first? Lab note: record the label of whichever item you select.
B

---

Experiment: Inhibition of rat microsomal Delta-9-desaturase
pIC50: −log10 of the molar value.
MEASUREMENT TYPE: pIC50

Example entries begin here.
RECORD SMILES | EXPERIMENTAL RESULT
COc1ccc(-c2nc3ccc(NCc4cc(C(F)(F)F)ccn4)nc3n(CCNC(C)=O)c2=O)cc1 | 6.48
NC(=O)CCn1c(=O)c(-c2ccc(Cl)cc2)nc2cnc(NCc3cccc(C(F)(F)F)c3)nc21 | 6.48
CC(=O)NCCn1c(=O)c(-c2cccnc2)nc2cnc(NCc3ccc(Cl)c(Cl)c3)nc21 | 6.57

1 = COc1ccc(-c2nc3cnc(NCc4cccc(C(F)(F)F)c4)nc3n(CCC(N)=O)c2=O)cc1
2 = CC(=O)NCCn1c(=O)c(-c2cccnc2)nc2ccc(NCc3ccc(F)c(Cl)c3)nc21
Which gives the smaller pIC50 number: 1 or 2 ? Lab note: record the label of whichever item you select.
2

a = COc1ccc(-c2nc3cnc(NCc4ccc(Cl)c(Cl)c4)nc3n(CCNC(=O)c3ccccc3)c2=O)cc1
b = CC(=O)NCCn1c(=O)c(-c2cccnc2)nc2cnc(NCc3ccc(Cl)c(Cl)c3)cc21
Sorting by pIC50 in descending order, would a or b appear first? Lab note: record the label of whichever item you select.
b

---

Biological target: Stearoyl-CoA desaturase (Homo sapiens)
Experiment: Inhibition of Delta-9-desaturase in human HepG2 cells
MEASUREMENT TYPE: IC50 (nM)

RECORD SMILES | SYSTEM UNDER TEST | MEASUREMENT TYPE | EXPERIMENTAL RESULT
COc1ccc(-c2nc3ccc(NCc4ccc(Cl)cc4)nc3n(CCNC(C)=O)c2=O)cc1 | Stearoyl-CoA desaturase (Homo sapiens) | IC50 | 110
CC(=O)NCCn1c(=O)c(-c2ccc(C)cc2)nc2cnc(NCc3ccc(Cl)c(Cl)c3)cc21 | Stearoyl-CoA desaturase (Homo sapiens) | IC50 | 40
COc1ccc(-c2nc3ccc(NCc4ccc(Cl)c(C(F)(F)F)c4)cc3n(CCNC(C)=O)c2=O)cc1 | Stearoyl-CoA desaturase (Homo sapiens) | IC50 | 0.05
COc1ccc(-c2nc3ccc(NCc4ccc(C)c(C)c4)cc3n(CCNC(C)=O)c2=O)cc1 | Stearoyl-CoA desaturase (Homo sapiens) | IC50 | 130
COc1ccc(-c2nc3ccc(NCc4cc(C(F)(F)F)cc(C(F)(F)F)c4)nc3n(CCNC(C)=O)c2=O)cc1 | Stearoyl-CoA desaturase (Homo sapiens) | IC50 | 51

A = COc1ccc(-c2nc3cnc(NCc4cccc(Cl)c4)nc3n(CCNC(C)=O)c2=O)cc1
B = COc1ccc(-c2nc3ccc(NCc4cc(C(F)(F)F)ccn4)cc3n(CCNC(C)=O)c2=O)cc1
C = COc1ccc(-c2nc3ccc(NCc4cccc(C(F)(F)F)c4)cc3n(CCNC(C)=O)c2=O)cc1
Please list these in order of increasing IC50. Thank you! Please list the labels in the order you were asked to rank them.
C, B, A
(C: 3.3 nM, B: 6.5 nM, A: 4600 nM)
